# Tested on: OVCAR-5
# Measurement Protocol: NCI tumour cell line growth inhibition, 48 h
The source made the active and inactive calls. No stated cut-off is given here; in the data, active = GI50 up to about 1.1 µM and inactive = higher.
Property Name: GI50

Please fill in: GI50 reported for Cc1ccc(C(=O)/C=C2/Nc3ccccc3NC2=O)c(C)c1 = 44.7 µM (inactive)

The recorded GI50 for entry COc1cc(CNC(=O)CCCCCCCCCCSC#N)ccc1O equals 30.3 µM (inactive)

The measured GI50 associated with C=CCCCCCCCCCOC1C=CC(O)C(CO)O1 (configuration not stated) reads 68.4 µM (inactive)

Memo: CC(C)Cc1ccc(C(C)C(=O)N2CCN(/C=C/c3ccccc3)CC2)cc1 (configuration not stated) , reported GI50: 13.9 µM (inactive)

// field: GI50; key: N=C(/C=C/c1ccc(-c2cn3cc(/C=C/C(=N)N4CCCC4)ccc3n2)cc1)N1CCCC1 ; value = > 100 µM (inactive)

In plain terms, O=C(CC(=O)c1ccccc1)CC(O)(c1ccccc1)c1ccccc1 has a documented GI50 of 11.3 µM (inactive)

The molecule listed as N#Cc1c(Nc2nc3ccccc3s2)c2ccccc2n2c1nc1ccccc12 shows GI50 equal to > 100 µM (inactive)

GI50 reading for N#Cc1c(O)nc2nn3c4ccc5ccccc5c4nnc3c2c1-c1ccc(Cl)cc1 : 6.24 µM (inactive)

So for CCOc1ccc2c(c1)/C(=C(\C(Cl)=C(Cl)Cl)[N+](=O)[O-])N2 , the logged GI50 turned out to be > 100 µM (inactive)

GI50 in this record for Nc1ccc(S(=O)(=O)C23CC4CC(CC(C4)C2)C3)cc1 : > 100 µM (inactive)

Per the record, Cc1c(-c2ccccc2)c(C#N)c2nnc(C(N)=O)c(N)n12 has GI50 of > 100 µM (inactive)

So for NS(=O)(=O)c1ccc(/C=C/c2cccc(O)c2)cc1 , the logged GI50 turned out to be > 100 µM (inactive)

====

# Test system: UO-31
# Measurement Protocol: NCI tumour cell line growth inhibition, 48 h
Calls of active or inactive are those of the source. No stated cut-off is given here; in the data, active = GI50 up to about 1.1 µM and inactive = higher.
Hello, when you answer, please use one of the following outcomes: active, inactive

Dear all, I need the recorded test outcome for COc1ccc(-c2cc(=O)c3c(O)c(OC)c(OC)c(OC)c3o2)cc1OC [5-DEMETHYLNOBILETIN] , thank you.
inactive

Status in this test for CC(C)OC(=O)c1cc(NC(=O)C(C)(C)C)c(F)cc1Cl ?
inactive

Could you kindly confirm the outcome this assay logged for Nc1ccc(S(=O)(=O)C23CC4CC(CC(C4)C2)C3)cc1 ?
inactive

Any idea what this test logged for O=c1c2ccc(Br)cc2nc(-c2ccccc2)n1NC1OC(CO)C(O)C(O)C1O (centres undefined) ?
inactive

Which outcome was assigned to COC1=CC(=O)c2c(O)ccc(O)c2C1=O in this test?
inactive

I'd appreciate the recorded outcome for O=C(OC12CC3CC(CC(C3)C1)C2)c1ccc(NCc2cc(O)ccc2O)cc1 from this test.
active

Would you mind telling me which call this test gave COc1cc(Cc2cc(OC)c(OC)c(OC)c2)ccc1O ?
inactive

What did the test return for COc1ccc2c(c1)[n+]([O-])c(C(=O)CC(=O)C(=O)Nc1cccc(Cl)c1C)c(C)[n+]2[O-] ?
inactive

# fetch the recorded call for COC(=O)NN=C1C(C)(C)C(=O)C1(C)C here
inactive

====

# Test system: MDA-MB-435
# Measurement Protocol: NCI tumour cell line growth inhibition, 48 h
The source made the active and inactive calls. No stated cut-off is given here; in the data, active = GI50 up to about 1.1 µM and inactive = higher. Non-standard residues stand in square brackets, D forms with d. Residues, ends and D or L forms follow the SMILES beside them. *: point of attachment. Ac5c = NC1(C(=O)O)CCCC1; Boc = CC(C)(C)OC(=O)*; tBu = CC(C)(C)*
Respond with a class label; see active, inactive

Short answer needed: outcome of this test for Cc1cc(-c2no[n+]([O-])c2-c2cc(C)sc2S(C)(=O)=O)c(S(C)(=O)=O)s1 ?
inactive

Would you mind telling me which call this test gave CN1CCN(CCCN2c3ccccc3Sc3ccc(C(F)(F)F)cc32)CC1 ?
inactive

Recorded call for COc1c2ccsc2c(OC)c2ccsc12 ?
inactive

Query: recorded result category for CC1OC(=O)c2ccccc2NC1=O (centres undefined) in this test
inactive

# outcome recorded in this test, key = O=S(=O)(c1ccccc1)N1CCN(S(=O)(=O)c2ccccc2)c2ccccc21
inactive

Per the records of this test, what outcome belongs to O=C(Nc1nncs1)NS(=O)(=O)n1cnc2ccccc21 ?
inactive

Recorded test outcome, item N=C(N)NS(=O)(=O)c1ccc(NC(=O)c2cccc3c(NNc4ccc(S(N)(=O)=O)cc4)c4ccccc4nc23)cc1
inactive

Field: outcome | Entry: CCOC(=O)C1(C(=O)OCC)[C@@H](c2ccccc2)C2=NO[C@@H]3CCC[C@H]1[C@H]23
inactive

Short answer needed: outcome of this test for CSc1nc(NC(C)C)c2c(n1)Sc1nc3ccccc3n1C2O (centres undefined) ?
inactive

Hi, do you know how C=C1[C@@H]([C@@]2(C)C=CC(=O)C(C)(C)[C@@H]2CC(=O)OC)CC[C@@]2(C)[C@H](c3ccoc3)OC(=O)[C@H]3O[C@]132 came out in this test?
inactive

What did this assay record as the result for C[C@@H]1OC2(O)[C@@H]3CCCN3C(=O)N(Cc3ccccc3)N2C1=O (some centres undefined) ?
inactive

Record request — test call for Cc1ccc(S(=O)(=O)N/N=C/C(=C/c2ccc(Cl)cc2)CC(/C=N/NS(=O)(=O)c2ccc(C)cc2)=C\c2ccc(Cl)cc2)cc1
inactive

Recorded test outcome, item Cc1c(-c2ccccc2)c(C#N)c2nnc(C(N)=O)c(N)n12
inactive

Test call, this compound: O=Cc1c2n(c3ccccc13)N[C@@](Cc1ccc(O)cc1)(C(=O)O)C2
inactive

Assay outcome for N#Cc1c(O)nc2nn3c4ccc5ccccc5c4nnc3c2c1-c1ccc(Cl)cc1 : what was it?
inactive

Hi, do you know how Nc1nc(O)c2ncn([C@H]3CC[C@@H](CO)O3)c2n1 came out in this test?
inactive

Each compound tested received a call. Report the one for Cc1nnc(N)nc1C/C=C/C(Sc1ccc(Cl)cc1)c1ccccc1 (centres undefined) .
inactive

Recorded test call requested for NC(=O)NC(=O)c1ccc(NC(=O)CBr)cc1
inactive

How did this test come out for CCN(CC)CCC(=O)O[C@H]1CC[C@H](CC(C)[C@H]2CC(=O)C(C)C=C(C)[C@H](OC(=O)CCN(CC)CC)C(OC)C(=O)[C@@H](C)CC(C)/C=C/C=C/C=C(C)C(OC)CC3CC[C@H](C)[C@](O)(O3)C(=O)C(=O)N3CCCCC3C(=O)O2)CC1OC (some centres undefined) ?
active

Check the results log: what was the call for COc1ccc(/C=C2/SC(c3ccc(Cl)cc3)N(NC(=O)CCCCCCCCC(=O)NN3C(=O)/C(=C\c4ccc(OC)c(OC)c4)SC3c3ccc(Cl)cc3)C2=O)cc1OC (centres undefined) ?
inactive

Look up the recorded call for CC#Cc1cc2c(cc1O)CC[C@@H]1[C@@H]2CC[C@]2(C)[C@@H](O)CC[C@@H]12 in this test.
active

What is the recorded call for this compound in the test? COc1cc2cc(C(=O)N3CC(COS(C)(=O)=O)c4ccc(NC(=O)OCc5ccccc5)cc43)[nH]c2c(OC)c1OC (centres undefined)
inactive

Fill in: this test's call for CC(OC(C)(C)C)C1NC(=O)C(CCCCNC(=O)OC(C)(C)C)NC(=O)C(Cc2c[nH]c3ccccc23)NC(=O)C(Cc2ccccc2)NC(=O)C2(CCCC2)NC(=O)C(Cc2ccccc2)NC1=O (centres undefined) (cyclo([Ac5c]FWK(Boc)T(tBu)F); configuration not given here) is ___
inactive

Please indicate how the test categorized CCc1cccc(CC)c1NC(=O)C(C#N)C1=C(Cl)C(=O)c2ccccc2C1=O (centres undefined) .
inactive

====

# Test system: M14
# Measurement Protocol: NCI tumour cell line growth inhibition, 48 h
The source made the active and inactive calls. No stated cut-off is given here; in the data, active = GI50 up to about 1.1 µM and inactive = higher.
Property Name: GI50

Summary for this compound, CCOC(=O)c1c(-c2ccccc2)oc(-c2ccccc2)c1C(=O)OCC : GI50 is > 100 µM (inactive)

// GI50 value for COc1cc(OC)cc(Oc2nc3c(N)cc(C(F)(F)F)cc3nc2-c2ccccc2)c1 : 49.3 µM (inactive)

# GI50 (compound: COC(=O)C(C(=O)C(=O)Nc1c(C)cccc1C(C)(C)C)c1nc2ccc(Cl)cc2nc1O (stereo not drawn) ) is > 100 µM (inactive)

Item: CC(=O)N1CN2C(=O)CCC2c2cc(C)ccc21 (stereo not drawn) | GI50: > 100 µM (inactive)

For Nc1ccccc1.O=P(O)(O)c1ccccc1 the compound record lists GI50 as > 100 µM (inactive)

Per the records, this compound ( CO/N=C(\C(=O)O/C(=N/C1CCCCC1)NC1CCCCC1)c1csc(NC(c2ccccc2)(c2ccccc2)c2ccccc2)n1 ) has GI50 equal to > 10 µM (inactive)

// sample OCCCNc1[nH]cnc2nncc1-2 , its GI50 was > 100 µM (inactive)

// COc1cccc(NC(=O)CC(=O)N2NC(c3ccccc3)C(/N=N/c3cccc(C(=O)O)c3)C2=O)c1 (stereo not drawn) : GI50 value = > 100 µM (inactive)

Lab note: C=C(C)COC1CCCCO1 (stereo not drawn) gave GI50 of > 100 µM (inactive)

The reported value for O=c1oc2ccccc2cc1-c1cn2ccccc2n1 in terms of GI50 is 8.51 µM (inactive)

Recorded result, CC1(C)OC(=O)C2(O1)C(=O)C1CCCCC12 (stereo not drawn) , GI50: > 100 µM (inactive)

Just so you know, measured GI50 for O=C1C2Nc3ccccc3SC2C(=O)N1c1ccccc1C(F)(F)F (stereo not drawn) came out at 16 µM (inactive)

Looking up CC(C)NC(=O)CCN(C(=O)O)S(=O)(=O)c1ccc(NC(=O)c2ccccc2)cc1 , I see its GI50 listed as > 100 µM (inactive)

The compound CC(C)[Si](OC1=C(C(=O)N(C)c2ccccc2Cl)CCCC1)(C(C)C)C(C)C showed GI50 equal to 16.1 µM (inactive)

# GI50 (compound: COc1ccc(C=O)c(NC(=O)C(C)C)c1 ) is 37.6 µM (inactive)

Recorded GI50 (compound Cc1nc2ccccc2n1Cc1ccc(NC(=S)Nc2ccccc2)cc1 ): 56.1 µM (inactive)

For this compound ( S=C(N/N=C/c1ccccc1)NC12CC3CC(CC(C3)C1)C2 ), measured GI50 is 46.6 µM (inactive)

Consider COc1cc(Cc2cc(OC)c(OC)c(OC)c2)ccc1O . Its measured GI50 is 5 µM (inactive)

# GI50 (compound: CCCCCC(=O)c1ccc2[nH]c3c(C)cc([N+](=O)[O-])c(C)c3c2c1 ) is 70 µM (inactive)

Reported GI50 of O=c1oc2ccc3ccccc3c2cc1-c1nnc(Nc2ccccc2)s1 : 37.2 µM (inactive)

Input O=c1cc(CO)oc(C(O)c2ccccc2)c1O (stereo not drawn) . Output GI50: > 100 µM (inactive)

Consider CC(=O)NC1C(OCc2ccccc2)OC(CO)C(O)C1OCC(=O)N[C@@H](C)C(=O)N[C@H](CCC(=O)NCCNCCNc1c2ccccc2nc2cccc([N+](=O)[O-])c12)C(N)=O (stereo partly drawn) . Its measured GI50 is 56 µM (inactive)

The compound identified as Cc1ccc(C)c(COCCOCn2c(=O)[nH]c(=O)c3cc(Br)ccc32)c1 registered its GI50 at > 100 µM (inactive)

Record summary for CN(C)CC1(Cc2ccccc2)CC/C(=C\c2ccccc2)C1=O (stereo not drawn) : reported GI50 = 49.3 µM (inactive)

The recorded GI50 for CCCCCC/C=C/C#CCCCCCCCC(=O)O is > 100 µM (inactive)

Summary for this compound, NC(=O)NCCCC(NC(=O)OCCCCCCn1ccc(=O)[nH]c1=O)C(=O)O (stereo not drawn) : GI50 is > 100 µM (inactive)

Note to self: GI50 recorded for CC(=O)Nc1ccc(C(=O)NN2C(=O)C(Cl)C2c2cc(Br)ccc2O)cc1 (stereo not drawn) was 4.54 µM (inactive)

For record CCCC(=O)Nc1cn(COC)c(C(=O)N2C[C@H]3C[C@@]34C2=CC(=O)c2[nH]cc(C)c24)n1 the listed GI50 is 8.15 µM (inactive)

The compound listed as C[C@]12CCC(=O)CC1CCCC2=O (stereo partly drawn) shows GI50 equal to > 100 µM (inactive)

The recorded GI50 for O=C1[C@@H]2C(c3ccccc3[N+](=O)[O-])=[N+](c3ccccc3)O[C@@H]2C(=O)N1c1ccc(Cc2ccc(N3C(=O)[C@H]4C(c5ccccc5[N+](=O)[O-])=[N+](c5ccccc5)O[C@H]4C3=O)cc2)cc1 is 16.4 µM (inactive)

compound CN1CCN(CCCN2c3ccccc3Sc3ccc(C(F)(F)F)cc32)CC1 , GI50 observed: 1.72 µM (inactive)

So for Nc1ccc(Oc2ccc(C3(c4ccc(Oc5ccc(N)cc5)cc4)C4CC5CC(C4)CC3C5)cc2)cc1 , the logged GI50 turned out to be 3.2 µM (inactive)

GI50 in this record for O=[N+]([O-])c1ccc(-c2ccc(-c3csc(Nc4ccccc4)n3)o2)cc1 : 20.6 µM (inactive)

Briefly, GI50 measured for O=NN1CCCS1(=O)=O : > 100 µM (inactive)

The measured GI50 associated with CSc1nc2c(c(=O)n1C)N=C(c1ccccc1)[C@H](C(CC(=O)c1ccccc1)c1ccccc1)C(c1ccccc1)N2 (stereo partly drawn) reads > 100 µM (inactive)

Entry CC(=O)OC1=c2ccccc2=C(O)C2C1C=NN2C(C)=O (stereo not drawn) — recorded GI50 = > 100 µM (inactive)

response.value for C/N=c1\ss/c(=N\C(=S)N(C)C)n1-c1ccccc1 (field: GI50) = > 100 µM (inactive)

For reference, reported GI50 for C=CCCCCCCCCCOC1C=CC(O)C(CO)O1 (stereo not drawn) stands at 18.6 µM (inactive)
